Consider the following molecules; for each one, report its ABSOLUTE SEGMENTED NEUTROPHIL.
- Species on record: Rattus norvegicus
- procedure summary: DrugMatrix - Regimen: Daily Repeat
- Format: toxicity, organism-based, Sprague-Dawley
- Set-up: regimen Daily Repeat, gender Male, age 6-8 weeks
- measurement parameters: in vivo, po, 0 mg/kg, 120 h, tissue Blood, route oral GAVAGE, dose level Control, time 5 day, vehicle 100 % WATER
Respond with the figure and its unit, in that order.

[[record]]
molecule = "Cc1ccc(NC(=O)c2ccc(CN3CCN(C)CC3)cc2)cc1Nc1nccc(-c2cccnc2)n1"
reported = "1137.17 CELLS/uL"


Please supply ABSOLUTE SEGMENTED NEUTROPHIL for each of the following items, keeping them in order.
1. O.O.O.O.O.O.[Cl-].[Cl-].[Sr+2] [STRONTIUM CHLORIDE HEXAHYDRATE]
2. CC(C)NCC(O)c1ccc(NS(C)(=O)=O)cc1 (stereo not drawn)
3. CS(=O)(=O)c1ccc([C@@H](O)[C@@H](CO)NC(=O)C(Cl)Cl)cc1
4. Cn1c(=O)c2[nH]cnc2n(C)c1=O.O
5. CN(C)CC[C@@H](c1ccc(Cl)cc1)c1ccccn1
6. CN(C)CCOC(c1ccccc1)c1ccccc1 [DIPHENHYDRAMINE]
7. CN1[C@@H]2CC[C@H]1C[C@@H](OC(=O)C(CO)c1ccccc1)C2 (stereo partly drawn)

1. 1137.17 CELLS/uL
2. 1235.5 CELLS/uL
3. 1137.17 CELLS/uL
4. 2116.33 CELLS/uL
5. 896.5 CELLS/uL
6. 1283 CELLS/uL
7. 572.5 CELLS/uL

----------
- Species: Rattus norvegicus
- procedure summary: DrugMatrix - Regimen: Daily Repeat
- Type: toxicity, organism-based, Sprague-Dawley
- Parameters: regimen Daily Repeat, gender Male, age 6-8 weeks
- measurement parameters: in vivo, po, 2000 mg/kg, 72 h, tissue Blood, route oral GAVAGE, dose level High, time 3 day, vehicle .5 % CMC
measured parameter: LYMPHOCYTE (%)
One number for each entry, in %.

Please supply LYMPHOCYTE for each of the following items, keeping them in order.
1. COc1cc2nc(N3CCN(C(=O)c4ccco4)CC3)nc(N)c2cc1OC [PRAZOSIN]
2. NC1CCN(c2nc3c(cc2F)c(=O)c(C(=O)O)cn3-c2ccc(F)cc2F)C1 (stereo unspecified) [TOSUFLOXACIN]
3. O=C1Nc2ccc(Cl)cc2C(c2ccccc2Cl)=NC1O (stereo unspecified) [LORAZEPAM]
4. CN(C/C=C/C#CC(C)(C)C)Cc1cccc2ccccc12 [TERBINAFINE]
5. CN/C(=N/CCSCc1nc[nH]c1C)NC#N [CIMETIDINE]
6. CC1(C)S[C@@H]2[C@H](NC(=O)[C@H](N)c3ccccc3)C(=O)N2[C@H]1C(=O)O [AMPICILLIN]

1: 87.33; 2: 88.5; 3: 87.33; 4: 76.67; 5: 84.33; 6: 90.33

----------
- Species on record: Rattus norvegicus
- procedure summary: DrugMatrix - Regimen: Daily Repeat
- Assay type: toxicity, organism-based, Sprague-Dawley
- Parameters: regimen Daily Repeat, gender Male, age 6-8 weeks
- measurement parameters: in vivo, po, 0 mg/kg, 120 h, tissue Blood, route oral GAVAGE, dose level Control, time 5 day, vehicle 100 % WATER
Consider the following molecules; for each one, report its EOSINOPHIL.
One number for each entry, in %.

[[record]]
molecule = "CCN(CC)CCNC(=O)c1cc(S(C)(=O)=O)ccc1OC [TIAPRIDE]"
reported = 1.67

[[record]]
molecule = "O.O.O.O.O.O.[Cl-].[Cl-].[Sr+2] [STRONTIUM CHLORIDE HEXAHYDRATE]"
reported = 1.67

[[record]]
molecule = "Cc1ccc(NC(=O)c2ccc(CN3CCN(C)CC3)cc2)cc1Nc1nccc(-c2cccnc2)n1"
reported = 1.67


Please supply EOSINOPHIL for each of the following items, keeping them in order.
1. Cn1c(=O)c2[nH]cnc2n(C)c1=O.O
2. CN(C)CC[C@@H](c1ccc(Cl)cc1)c1ccccn1
3. NNc1nncc2ccccc12 [HYDRALAZINE]
4. CN1[C@@H]2CC[C@H]1C[C@@H](OC(=O)C(CO)c1ccccc1)C2 (stereo not given in full)
5. Oc1cccc(O)c1O
6. CC(C)NCC(O)c1ccc(NS(C)(=O)=O)cc1 (stereo not given)

[0, 0.17, 0.17, 0.33, 0.2, 0.17]

May I ask what EOSINOPHIL has been recorded for CS(=O)(=O)c1ccc([C@@H](O)[C@@H](CO)NC(=O)C(Cl)Cl)cc1 ? 1.67

----------
- Species: Rattus norvegicus
- procedure summary: DrugMatrix - Regimen: Daily Repeat
- Type: toxicity, organism-based, Sprague-Dawley
- Set-up: regimen Daily Repeat, gender Male, age 6-8 weeks
- measurement parameters: in vivo, po, 1500 mg/kg, 72 h, tissue Blood, route oral GAVAGE, dose level High, time 3 day, vehicle .5 % CMC
Consider the following compounds; for each one, report its LEUKOCYTE COUNT.
Give bare numbers, in x10E3/uL.

[[record]]
compound = "CN(C)[C@@H]1C(O)=C(C(N)=O)C(=O)[C@@]2(O)C(O)=C3C(=O)c4c(O)ccc(Cl)c4[C@@](C)(O)[C@H]3C[C@@H]12"
reported = 6.5

[[record]]
compound = "COC(=O)Nc1nc2ccc([S+]([O-])c3ccccc3)cc2[nH]1 (stereo not given)"
reported = 10.1

[[record]]
compound = "CC(C)Oc1ccc2c(=O)c(-c3ccccc3)coc2c1"
reported = 14.53

[[record]]
compound = "CC(C)=CCC/C(C)=C/CO"
reported = 17.07


May I ask what LEUKOCYTE COUNT has been recorded for O=c1cnn([C@@H]2O[C@H](CO)[C@@H](O)[C@H]2O)c(=O)[nH]1 ? 9.73

----------
- Species: Rattus norvegicus
- procedure summary: DrugMatrix - Regimen: Daily Repeat
- Type: toxicity, organism-based, Sprague-Dawley
- Set-up: regimen Daily Repeat, gender Male, age 6-8 weeks
- measurement parameters: in vivo, po, 0 mg/kg, 72 h, tissue Blood, route oral GAVAGE, dose level Control, time 3 day, […]
measured parameter: ERYTHROCYTE COUNT
Respond with the figure and its unit, in that order.

[[record]]
compound = "Clc1ccc(COC(Cn2ccnc2)c2ccc(Cl)cc2Cl)cc1 (centres undefined) [ECONAZOLE]"
reported = "5.03 x10E6/uL"

[[record]]
compound = "CC(C)(C)NC(=O)[C@H]1CC[C@H]2[C@@H]3CC[C@H]4NC(=O)C=C[C@]4(C)[C@H]3CC[C@]12C [FINASTERIDE]"
reported = "5.03 x10E6/uL"

[[record]]
compound = "CO[C@H]1/C=C/O[C@@]2(C)Oc3c(C)c(O)c4c(O)c(c(/C=N/N5CCN(C6CCCC6)CC5)c(O)c4c3C2=O)NC(=O)/C(C)=C\\C=C\\[C@H](C)[C@H](O)[C@@H](C)[C@@H](O)[C@@H](C)[C@H](OC(C)=O)[C@@H]1C [RIFAPENTINE]"
reported = "5.53 x10E6/uL"


Now consider the entry below.
May I ask what ERYTHROCYTE COUNT has been recorded for COc1cc(N)c(Cl)cc1C(=O)NC1CCN(CCCOc2ccc(F)cc2)CC1OC (centres undefined) [CISAPRIDE] ? 5.44 x10E6/uL

----------
- Species on record: Rattus norvegicus
- procedure summary: DrugMatrix - Regimen: Daily Repeat
- Type: toxicity, organism-based, Sprague-Dawley
- Set-up: regimen Daily Repeat, gender Male, age 6-8 weeks
- measurement parameters: in vivo, sc, 2 mg/kg, 120 h, tissue Blood, route mini-PUMP - SUBCUTANEOUS, dose level High, time 5 day, vehicle 100 % SALINE
measured parameter: ABSOLUTE BASOPHIL (cells/µL)
Give bare numbers, in cells/µL.

May I ask what ABSOLUTE BASOPHIL has been recorded for CC(C)NCC(O)c1ccc(O)c(O)c1 (stereo unspecified) ? 50

----------
- Species: Rattus norvegicus
- procedure summary: DrugMatrix - Regimen: Daily Repeat
- Type: toxicity, organism-based, Sprague-Dawley
- Design: regimen Daily Repeat, gender Male, age 6-8 weeks
- measurement parameters: in vivo, po, 10 mg/kg, 120 h, tissue Blood, route oral GAVAGE, dose level Low, time 5 day, vehicle .5 % CMC
Consider the following compounds; for each one, report its NEUTROPHIL.
Answers are plain numbers, in %.

[[record]]
compound = "O=C1C(CC[S+]([O-])c2ccccc2)C(=O)N(c2ccccc2)N1c1ccccc1 (centres undefined)"
reported = 8.33

[[record]]
compound = "CNCCC(Oc1ccc(C(F)(F)F)cc1)c1ccccc1 (centres undefined)"
reported = 8

[[record]]
compound = "Fc1ccc(C(c2ccc(F)cc2)N2CCN(C/C=C/c3ccccc3)CC2)cc1"
reported = 4.33


May I ask what NEUTROPHIL has been recorded for O=C1CN=C(c2ccccc2Cl)c2cc([N+](=O)[O-])ccc2N1 ? 7.33
